protocol-notes: passive permeability, PAMPA, ADME assay (AID 1508612)
reported-conditions: pH 7.4, 30.0 min, 50.0 µM
property-measured: Papp

molecule | Papp
Cc1nc([C@](C)(O)CO)sc1-c1cnc(N)c(O[C@H](C)c2cc(F)ccc2-n2nccn2)c1 | 414 ×10⁻⁶ cm/s
COc1ccc(-c2nc3ccccc3c(=O)n2Cc2ccccc2)cc1COc1ccc(NC(C)=O)cc1 | > 1000 ×10⁻⁶ cm/s
O=c1[nH]nc(Sc2ncc([N+](=O)[O-])s2)n1-c1ccc2c(c1)OCCO2 | 137 ×10⁻⁶ cm/s

Lab note: measured Papp of CC(=O)Nc1ccc(-c2csc(N3CCC(C(N)=O)CC3)n2)cc1 was < 1 ×10⁻⁶ cm/s

Lab note: measured Papp of O=C(Nc1ccc(S(=O)(=O)Nc2nccs2)cc1)c1ccnc2ccccc12 was 2.3 ×10⁻⁶ cm/s

Lab note: measured Papp of COc1ccc(C(=O)Nc2nc(-c3ccccc3)cs2)cc1NS(=O)(=O)c1ccc(C)cc1 was 14.9 ×10⁻⁶ cm/s

Lab note: measured Papp of CCN(CC)[S+](=O)([O-])c1cc(NC(=O)c2[nH]c(C)c(C(C)=O)c2C)ccc1OC was 645 ×10⁻⁶ cm/s

Lab note: measured Papp of COc1ccc(C2c3c(oc4ccc(Cl)cc4c3=O)C(=O)N2CCCN(C)C)cc1OC (stereo unspecified) was 235 ×10⁻⁶ cm/s

Lab note: measured Papp of COCc1cc(C)nc(SCC(=O)c2ccc(O)c(O)c2)c1C#N was 118 ×10⁻⁶ cm/s

----------
protocol-notes: passive permeability, PAMPA, ADME assay (AID 1508612)
reported-conditions: pH 7.4, 30.0 min, 50.0 µM
Rule for this label: T means Papp is less than 300 ×10⁻⁶ cm/s; F means Papp is at least 300 ×10⁻⁶ cm/s.

compound | cat
CCOC(=O)NNc1ccc(N(CC)CC(C)O)nn1 (stereo not given) | T
Cc1ccc(OCCn2c(CCNC(=O)c3ccccc3Br)nc3ccccc32)cc1 | F
Cc1cc(C)cc(NS(=O)(=O)c2ccc3[nH]cc(C(=O)NCc4ccco4)c(=O)c3c2)c1 | T
C[C@@]1(C(=O)Nc2ccc(F)nc2)CCCN1c1nc(Nc2cc(C3CC3)[nH]n2)c2cccn2n1 | F
COc1ccc(-n2nc(C3CCN([S+](=O)([O-])c4c(C)noc4C)CC3)[nH]c2=O)cc1 | F

Inquiry: Please determine if CCn1cc(C(=O)O)c(=O)c2cnc(N3CCN(C(=S)Nc4ccccc4)CC3)nc21 is below 300 ×10⁻⁶ cm/s in terms of Papp.
Reply text: T

Inquiry: Please determine if COc1cccc(Nc2nc(-c3ccncc3)nc3ccccc23)c1 is below 300 ×10⁻⁶ cm/s in terms of Papp.
Reply text: F

Inquiry: Please determine if O=C(Cc1ccc(Cl)cc1)Nc1cnccc1C(=O)O is below 300 ×10⁻⁶ cm/s in terms of Papp.
Reply text: T

Inquiry: Please determine if COc1ccc(-c2csc(NC(=O)c3ccccc3NS(=O)(=O)c3ccc(C)cc3)n2)cc1 is below 300 ×10⁻⁶ cm/s in terms of Papp.
Reply text: T

----------
protocol-notes: passive permeability, PAMPA, ADME assay (AID 1508612)
reported-conditions: pH 7.4, 30.0 min, 50.0 µM
Classes by Papp: Low (below 70 ×10⁻⁶ cm/s), Mid (70 ×10⁻⁶ cm/s to below 500 ×10⁻⁶ cm/s), High (500 ×10⁻⁶ cm/s or more)

compound | cat
O=c1c(-c2cccs2)ccc2n1C[C@H]1C[C@@H]2CN(C2CCOCC2)C1 | Mid
CCc1oc2ccccc2c1C(=O)c1cc(I)c(O)c(I)c1 | Low
CN(C)C(=O)c1nc(-c2ccc(Cl)nc2)c2ccccn12 | High
COc1ccc(NC(=O)c2[nH]c(C)c(C(C)=O)c2C)cc1S(=O)(=O)N(C)C | Mid
Cc1c(O)ccc2c1OC(C)(C)CC2 | High

Inquiry: Exercise: read the entry CCCOC(c1cc2nccc(C(=O)O)c2[nH]1)c1ccccc1Cl (stereo unspecified) and state which class it falls under.
Reply text: Low

Inquiry: Exercise: read the entry CNc1sc(-c2cccc3ccccc23)nc1C#N and state which class it falls under.
Reply text: High

Inquiry: Exercise: read the entry OCc1cccc(-c2cc(-c3cccnc3)c3cncn3c2)c1 and state which class it falls under.
Reply text: Mid

Inquiry: Exercise: read the entry NC(=O)COc1cccc(C2CC(=O)Nc3nc(N4CCCCC4)sc32)c1 (stereo unspecified) and state which class it falls under.
Reply text: Low

Inquiry: Exercise: read the entry CCc1ccc(NC(=O)c2[nH]c(C)c(C(C)=O)c2C)cc1S(=O)(=O)Nc1ccc(Br)cc1 and state which class it falls under.
Reply text: Low

Inquiry: Exercise: read the entry NC1CCN(C(=O)C2CCCN(c3nc(-c4ccccc4)nc4c3CCC4)C2)CC1 (stereo unspecified) and state which class it falls under.
Reply text: Mid

----------
protocol-notes: passive permeability, PAMPA, ADME assay (AID 1508612)
reported-conditions: pH 7.4, 30.0 min, 50.0 µM
Below is a list of entries, each paired with its recorded Papp value.
Report the figure in ×10⁻⁶ cm/s without appending any unit label.

Study these solved cases before continuing.
compound | property-measured | observed-result
C=C1C(=O)OC2C1CCC(C)C1(O)C=CC(=O)C21C (stereo unspecified) | Papp | 64.6
O=S(=O)(Nc1ccc(S(=O)(=O)Nc2nccs2)cc1)c1ccc2ccccc2c1 | Papp | 7.37
Cc1ccc(CC(=O)Nc2nc(-c3ccc4c(c3)CCN4C(=O)c3ccccc3C)c(C)s2)cc1C | Papp | 222
Clc1ccc(Nc2nc(-c3ccncc3)nc3ccccc23)cc1Cl | Papp | 76.1
O=C(Nc1ccc(F)c(C(F)(F)F)c1)Nc1nnc(-c2ccncc2)s1 | Papp | 38.5

Lab note: measured Papp of COC(=O)Nc1nc2ccc(Sc3ccccc3)cc2[nH]1 was 197

Lab note: measured Papp of CCn1c(C(=O)NCCc2ccc(OC)cc2)cc2sccc21 was 721

Lab note: measured Papp of Fc1ccc(Nc2nc(-c3ccnc4ccccc34)nc3ccccc23)cc1F was 202

Lab note: measured Papp of COc1ccc(OC)c(CNc2ncnc3onc(C)c23)c1 was 366

Lab note: measured Papp of COC12C(COC(N)=O)C3=C(C(=O)C(C)=C(N)C3=O)N1CC1C2N1C (stereo unspecified) was 1.95

Lab note: measured Papp of CN(C)CCOC1=Cc2ccccc2Sc2ccc(Cl)cc21 was 996

----------
protocol-notes: passive permeability, PAMPA, ADME assay (AID 1508612)
reported-conditions: pH 7.4, 30.0 min, 50.0 µM
Below is a list of entries, each paired with its recorded Papp value.
Report the figure in ×10⁻⁶ cm/s without appending any unit label.

compound | endpoint-unit | Papp
CSc1ncc(Cl)c(C(=O)Nc2c(C)cccc2C)n1 | ×10⁻⁶ cm/s | 508
COc1ccc(Cn2c(=O)[nH]c3cc(C(=O)NCCCN4CCCCC4)ccc3c2=O)cc1 | ×10⁻⁶ cm/s | 16.8
COc1ccc2[nH]c(=O)c(-c3noc(-c4ccc(F)cc4)n3)cc2c1 | ×10⁻⁶ cm/s | 63

Lab note: measured Papp of O=S(=O)(Nc1nccs1)c1ccc(NCc2cccc(Br)c2O)cc1 was 72.7

Lab note: measured Papp of O=C(Nc1nc(-c2ccccc2)cs1)c1ccncc1NS(=O)(=O)c1c(F)cc(F)cc1F was 459

----------
protocol-notes: passive permeability, PAMPA, ADME assay (AID 1508612)
reported-conditions: pH 7.4, 30.0 min, 50.0 µM
property-measured: Papp (×10⁻⁶ cm/s)
Report the figure in ×10⁻⁶ cm/s without appending any unit label.

Lab note: measured Papp of Cc1cccc(-c2noc([C@@H]3Cc4nc[nH]c4CN3)n2)c1 was 343

----------
protocol-notes: passive permeability, PAMPA, ADME assay (AID 1508612)
reported-conditions: pH 7.4, 30.0 min, 50.0 µM
property-measured: Papp (×10⁻⁶ cm/s)
Report the figure in ×10⁻⁶ cm/s without appending any unit label.

compound | Papp, ×10⁻⁶ cm/s
Cc1nc(Nc2n[nH]c3c2CN(C(=O)N[C@H](CN(C)C)c2ccccc2)C3(C)C)c2sccc2n1 | 2.31
Cc1ccc(S(=O)(=O)Nc2cc(C(=O)Nc3nc(-c4ccccc4)cs3)ccn2)cc1 | 259
Cc1ccc(S(=O)(=O)Nc2cnccc2C(=O)Nc2nc(-c3ccco3)cs2)cc1 | 297
Cc1nn2c(c1-c1ccccc1-c1ccccc1)N(CCC(C)C)CCC2 | 532

Lab note: measured Papp of COc1cccc(CNc2ccc(S(=O)(=O)Nc3ccccn3)cc2)c1O was 586

Lab note: measured Papp of CCCCCCCCc1ccc(CCC(N)(CO)CO)cc1 was 5.3

Lab note: measured Papp of O=C1C(SCCO)=C(SCCO)C(=O)c2ccccc21 was 108

Lab note: measured Papp of Cc1ccc(NC(=O)N2CCN(c3nc(N)nc4sc(-c5cccnc5)nc34)CC2)cc1 was 577

Lab note: measured Papp of CC(C)(C)C1CCc2[nH]c3ccccc3c(=O)c2C1 (stereo unspecified) was 356

Lab note: measured Papp of Cc1ccccc1C(=O)N1CCc2cc(-c3nc(NC(=O)c4ccc5c(c4)OCO5)sc3C)ccc21 was 569

Lab note: measured Papp of O=C(Nc1ccc(Cl)c(S(=O)(=O)N2CCOCC2)c1)c1ccc(S(=O)(=O)N2CCOCC2)cc1 was 936

Lab note: measured Papp of COc1ccc(CN2CCNc3cc(Nc4ccccc4)ncc3C2)cn1 was 834

Lab note: measured Papp of C#CCNC(=O)c1nc(-c2ccc(Cl)nc2)c2ccccn12 was 802

Lab note: measured Papp of Cc1ccc(S(=O)(=O)Nc2cnccc2C(=O)Nc2nc(-c3cc(Br)cs3)cs2)cc1 was 9.1

Lab note: measured Papp of O=C(Nc1nc(-c2ccccc2)cs1)c1ccncc1NS(=O)(=O)c1ccccc1 was 501

Lab note: measured Papp of O=C([C@@H]1CCCN(c2ccc3[nH]c(C4(n5cc(Cl)cn5)CC4)nc3n2)C1)N1CCCC1 was 225

Lab note: measured Papp of COc1cc(Nc2nc(-c3ccncc3)nc3ccccc23)ccc1F was 445

Lab note: measured Papp of NC(=O)C1CCN(c2nc(-c3cc4ccccc4o3)cs2)CC1 was 66.2
